- Test system: KRAS G12V-dependent Ba/F3 cells
- assayProcedure: Ba/F3 proliferation assay, KRAS G12V
- Format: cell-based
- measurementSetup: Mus musculus, BaF3, 72 h, AlamarBlue
# key: entry, value: IC50

molecule: C[C@H](Oc1cc(-n2ccc(Br)n2)nc(-c2noc3c2CCC[C@@]32CCCc3sc(N)c(C#N)c32)n1)[C@@H]1CCCN1C [II-110]
IC50: 13 nM
//
molecule: C[C@H](Oc1cc(-n2cc(Cn3ccnc3)nn2)nc(-c2noc3c2CCC[C@@]32CCCc3sc(N)c(C#N)c32)n1)[C@@H]1CCCN1C [II-113]
IC50: 33 nM
//
molecule: C[C@H](Oc1cc(-n2ccc(C(=O)N3CCCC3)n2)nc(-c2noc3c2CCC[C@@]32CCCc3sc(N)c(C#N)c32)n1)[C@@H]1CCCN1C [II-19]
IC50: 3 nM
//
molecule: C[C@H](Oc1cc(N2CCN(C)C3(CC3)C2)nc(-c2onc3c2CCC[C@@]32CCCc3sc(N)c(C#N)c32)n1)[C@@H]1C[C@@H](F)CN1C [I-39]
IC50: 895 nM
//
molecule: C[C@H](Oc1cc(-n2ccnn2)nc(-c2noc3c2CCC[C@@]32CCCc3sc(N)c(C#N)c32)n1)[C@@H]1CCCN1C [II-108]
IC50: 8 nM
//
molecule: C[C@H](Oc1cc(N2CCc3cccnc32)nc(-c2noc3c2CCC[C@@]32CCCc3sc(N)c(C#N)c32)n1)[C@@H]1CCCN1C [II-90]
IC50: 115 nM
//
molecule: C[C@H](Oc1cc(-n2ccnc2)nc(-c2noc3c2CCC[C@@]32CCCc3sc(N)c(C#N)c32)n1)[C@@H]1CCCN1C [II-69]
IC50: 7 nM
//
molecule: C[C@H](Oc1nc(-c2noc3c2CCC[C@@]32CCCc3sc(N)c(C#N)c32)nc(N2C[C@H](C)NC3(CC3)C2)c1F)[C@@H]1C[C@@H](F)CN1C [II-157]
IC50: 258 nM
//
molecule: C[C@H](Oc1cc(N2CCC[C@H](O)C2)nc(-c2noc3c2CCC[C@@]32CCCc3sc(N)c(C#N)c32)n1)[C@@H]1CCCN1C [II-57]
IC50: 45 nM
//
molecule: C[C@H](Oc1cc(-n2cc3ccn([C@@H]4CCOC4)c(=O)c3n2)nc(-c2noc3c2CCC[C@@]32CCCc3sc(N)c(C#N)c32)n1)[C@@H]1CCCN1C [II-203]
IC50: 4 nM
//
molecule: C[C@H](Oc1cc(-n2ccc(-c3cn(C4CCOCC4)nn3)n2)nc(-c2noc3c2CCC[C@@]32CCCc3sc(N)c(C#N)c32)n1)[C@@H]1CCCN1C [II-210]
IC50: 2 nM
//
molecule: C[C@H](O)Cn1ncc(-c2cc(O[C@@H](C)[C@@H]3CCCN3C)nc(-c3noc4c3CCC[C@@]43CCCc4sc(N)c(C#N)c43)n2)n1 [II-134]
IC50: 28 nM
//
molecule: C[C@H](Oc1cc(-c2cc[nH]n2)nc(-c2noc3c2CCC[C@@]32CCCc3sc(N)c(C#N)c32)n1)[C@@H]1CCCN1C [II-71]
IC50: 8 nM
